Tested on: Human immunodeficiency virus 1
assay notes: Antiviral activity against HIV-1 harboring RT E138K mutant infected in human MT4 cells assessed as protection against virus-induced cytopathogenicity after 5 days by MTT assay
Assay type: functional, organism-based
condition set: Human immunodeficiency virus 1, MT4, 120 h
parameter measured: pEC50
Kindly note that pEC50 refers to -log10 of the concentration in mol/L and answer with the value alone.

Examples with their reported pEC50 follow.
| chemical smiles | pEC50 |
| --- | --- |
| Cc1cc(/C=C/C#N)cc(C)c1Oc1nc(NC2CCN(Cc3ccc(S(N)(=O)=O)cc3)CC2)ncc1-c1ccncc1 | 7.95 |
| Cc1cc(C#N)cc(C)c1Oc1nc(NC2CCN(Cc3ccc(S(C)(=O)=O)cc3)CC2)ncc1-c1ccncc1 | 8.04 |

# input for lookup
Form field pEC50, entry Cc1cc(C#N)cc(C)c1Oc1nc(NC2CCN(Cc3ccc(S(C)(=O)=O)cc3)CC2)ncc1-c1ccoc1 : 7.82
